Origin of measurements: patent US20250263376A1

Tested on: S. typhimurium TA1535
method: Ames microplate test, TA1535;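 note: bacteria exposed 90 min at 37 °C in exposure medium, then 48 h in indicator medium in 384-well plates, yellow (revertant) wells counted per condition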
assay-conditions: 2.0 mM, + S9
readout-type: Increase in the number of yellow wells compared to the reference level, TA1535

- O=C(/C=C/c1ccccc1)NCCCCCCO: 0.94
- CCC(O)CNC(=O)/C=C/c1ccc(Cl)cc1 (stereo not shown): 0.13
- O=C(/C=C/c1ccccc1)NCCCCCO: 0.35
- O=C(/C=C/c1ccc(Cl)cc1)NCCCCCO: 0.23

* * *

target-desc: tyrosinase from mushroom (Agaricus bisporus, UniProt C7FF04)
Sequence (C7FF04 2-392): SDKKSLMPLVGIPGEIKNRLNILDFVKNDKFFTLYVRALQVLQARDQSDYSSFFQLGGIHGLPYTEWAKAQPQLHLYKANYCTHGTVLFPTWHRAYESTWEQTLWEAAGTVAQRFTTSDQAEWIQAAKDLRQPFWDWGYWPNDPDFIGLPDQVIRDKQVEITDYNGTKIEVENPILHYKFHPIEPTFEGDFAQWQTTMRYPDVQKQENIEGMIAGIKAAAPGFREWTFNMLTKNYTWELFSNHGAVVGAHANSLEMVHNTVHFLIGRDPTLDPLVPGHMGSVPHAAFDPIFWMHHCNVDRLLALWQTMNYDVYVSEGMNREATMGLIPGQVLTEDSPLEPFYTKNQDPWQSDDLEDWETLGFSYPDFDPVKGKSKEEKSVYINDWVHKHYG
Sequence (G1K3P4 entry or part of it, further chain): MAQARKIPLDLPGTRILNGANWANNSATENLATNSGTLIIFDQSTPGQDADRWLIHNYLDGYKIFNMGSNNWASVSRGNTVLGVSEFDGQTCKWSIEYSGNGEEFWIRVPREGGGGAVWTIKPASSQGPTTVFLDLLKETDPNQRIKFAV
method: Inhibition of commercial mushroom tyrosinase, substrate L-tyrosine
Assay type: biochemical
assay-conditions: 500 μM; read-out: Tyrosinase inhibition with L-tyrosine [%]
So basically: inhibition at 500 µM at 40% or higher? That is True. Lower than 40%? That is False.

* O=C(/C=C/c1ccccc1)NCCCCO | False
* CCC(O)CNC(=O)/C=C/c1ccc(Cl)cc1Cl (centres unmarked) | False
* O=C(/C=C/c1ccc(Cl)cc1)N1CCC(O)CC1 | True
* CCC(O)CNC(=O)/C=C/c1ccc(C)cc1 (centres unmarked) | False
* O=C(/C=C/c1ccccc1)NCCCO | False
* Cc1ccc(/C=C/C(=O)NCCCO)cc1 | False
* O=C(/C=C/c1ccccc1)NCCO | False
* CC(C)C(CO)NC(=O)/C=C/c1ccc(Cl)cc1 (centres unmarked) | True
* CCC(O)CNC(=O)/C=C/c1ccc(Cl)cc1 (centres unmarked) | True
* O=C(/C=C/c1ccccc1)NCCCCCCO | True
* CCC(CO)NC(=O)/C=C/c1ccc(C)cc1 (centres unmarked) | False
